Tgt: angiotensin II receptor
Test summary: Displacement of 125I- or 3H-angiotensin II from receptor preparations from various organs (liver, lung, adrenal gland, brain etc.)
Assay setup: Table 1; radioligand displacement, 25° C., 90 min, pH 7.4
pIC50: −log10 of the molar value.
Listed next: entries and their corresponding pIC50.
Observed property: pIC50

| Compound | Tgt | Recorded measurement |
| --- | --- | --- |
| CCCCc1nc(SC)c(C(=O)OCC)n1Cc1ccc(-c2ccccc2S(=O)(=O)NC(=O)OCc2cccs2)cc1 [Example 163] | angiotensin II receptor | 8.43 |
| CCCCc1nc(SC)c(C(=O)O)n1Cc1ccc(-c2ccccc2S(=O)(=O)NC(=O)OCCOCc2ccccc2)cc1 | angiotensin II receptor | 9.32 |
| CCCCc1nc(SC)c(C(=O)O)n1Cc1ccc(-c2ccccc2S(=O)(=O)NC(=O)N[C@H](CO)Cc2ccccc2)cc1 | angiotensin II receptor | 8.82 |
| CCCCc1nc(SC)c(C(=O)O)n1Cc1ccc(-c2ccccc2S(=O)(=O)NC(=O)NCC2CC2)cc1 | angiotensin II receptor | 9.22 |
| CCCCc1nc(SC)c(C(=O)O)n1Cc1ccc(-c2ccccc2S(=O)(=O)NC(=O)NCc2cccnc2)cc1 | angiotensin II receptor | 8.82 |
| CCCCc1nc(SC)c(C(=O)O)n1Cc1ccc(-c2ccccc2S(=O)(=O)NC(=O)NCCCc2ccccc2)cc1 | angiotensin II receptor | 9.10 |
| CCCCc1nc(SC)c(C(=O)O)n1Cc1ccc(-c2ccccc2S(=O)(=O)NC(=O)Nc2ccc(F)cc2)cc1 | angiotensin II receptor | 8.62 |

====

Tgt: angiotensin II receptor
Test summary: Displacement of 125I- or 3H-angiotensin II from receptor preparations from various organs (liver, lung, adrenal gland, brain etc.)
Assay setup: Table 1; radioligand displacement, 25° C., 90 min, pH 7.4
Entries and their IC50 values follow.

| Compound | Measure unit | IC50 |
| --- | --- | --- |
| CCCCc1nc(SC)c(C(=O)OCC)n1Cc1ccc(-c2ccccc2S(=O)(=O)NC(=O)NCc2ccccc2OC)cc1 | nM | 4.3 |
| CCCCc1nc(Cl)c(C=O)n1Cc1ccc(-c2ccccc2S(=O)(=O)NC(=O)Nc2ccc(C)cc2)cc1 | nM | 50 |
| CCCCc1nc(SC)c(C(=O)O)n1Cc1ccc(-c2ccccc2S(=O)(=O)NC(=O)OCc2ccccc2)cc1 | nM | 1.7 |
| CCCCc1nc(SC)c(C(=O)OCC)n1Cc1ccc(-c2ccccc2S(=O)(=O)NC(=O)NCCCc2ccccc2)cc1 | nM | 9.5 |
| CCCCc1nc(SC)c(C(=O)OCC)n1Cc1ccc(-c2ccccc2S(=O)(=O)NC(=O)OCCc2ccccc2)cc1 | nM | 0.4 |
| C=CCCOC(=O)NS(=O)(=O)c1ccccc1-c1ccc(Cn2c(CCCC)nc(SC)c2C(=O)O)cc1 | nM | 0.88 |
| CCCCc1nc(SC)c(C(=O)O)n1Cc1ccc(-c2ccccc2S(=O)(=O)NC(=O)OCC2CC=CCC2)cc1 (stereo not shown) | nM | 7 |
| CCCCc1nc(SC)c(C(=O)O)n1Cc1ccc(-c2ccccc2S(=O)(=O)NC(=O)NCCC2CCCN2C)cc1 (stereo not shown) | nM | 0.95 |
| CCCCc1nc(SC)c(C(=O)OCC)n1Cc1ccc(-c2ccccc2S(=O)(=O)NC(=O)N[C@H](C(=O)OC)C(C)C)cc1 | nM | 3.2 |
| CCCCc1nc(SC)c(C(=O)OCC)n1Cc1ccc(-c2ccccc2S(=O)(=O)NC(=O)NCc2ccc(OC)c(OC)c2)cc1 | nM | 280 |
| CCCCc1nc(SC)c(C(=O)O)n1Cc1ccc(-c2ccccc2S(=O)(=O)NC(=O)NCc2ccccc2OC)cc1 | nM | 0.96 |
| CCCCc1nc(SC)c(C(=O)OCC)n1Cc1ccc(-c2ccccc2S(=O)(=O)NC(=O)NCCc2ccccc2)cc1 | nM | 6.9 |
| CCCCc1nc(SC)c(C(=O)O)n1Cc1ccc(-c2ccccc2S(=O)(=O)NC(=O)NCc2ccccc2)cc1 | nM | 0.69 |
| CCCCc1nc(SC)c(C(=O)O)n1Cc1ccc(-c2ccccc2S(=O)(=O)NC(=O)OCc2cccs2)cc1 [Example 164] | nM | 0.86 |
| CCCCc1nc(Cl)c(C=O)n1Cc1ccc(-c2cccc(S(=O)(=O)NC(=O)Nc3nnn[nH]3)c2)cc1 | nM | 16000 |
| CCCCc1nc(SC)c(C(=O)O)n1Cc1ccc(-c2ccccc2S(=O)(=O)NC(=O)N[C@H](CO)c2ccccc2)cc1 | nM | 1.8 |
| C=CCNC(=O)NS(=O)(=O)c1ccccc1-c1ccc(Cn2c(CCCC)nc(SC)c2C(=O)O)cc1 | nM | 4.6 |
| CCCCc1nc(Cl)c(C=O)n1Cc1ccc(-c2ccccc2S(=O)(=O)NC(=O)NCc2ccc(OC)cc2)cc1 | nM | 1 |
| CCCCc1nc(SC)c(C(=O)O)n1Cc1ccc(-c2ccccc2S(=O)(=O)NC(=O)NCCCN2CCCCC2C)cc1 (stereo not shown) | nM | 2.9 |
| CCCCc1nc(SC)c(C(=O)O)n1Cc1ccc(-c2ccccc2S(=O)(=O)NC(=O)NCCC2=CCCCC2)cc1 | nM | 3.6 |
| CCCCc1nc(SC)c(C(=O)OCC)n1Cc1ccc(-c2ccccc2S(=O)(=O)NC(=O)Nc2ccc(F)cc2)cc1 | nM | 68.5 |
| CCCCc1nc(SC)c(C(=O)OCC)n1Cc1ccc(-c2ccccc2S(=O)(=O)NC(=O)N2CCOCC2)cc1 | nM | 8.2 |
| CCCCc1nc(SC)c(C(=O)O)n1Cc1ccc(-c2ccccc2S(=O)(=O)NC(=O)OCC)cc1 | nM | 0.7 |
| CCCCc1nc(SC)c(C(=O)O)n1Cc1ccc(-c2ccccc2S(=O)(=O)NC(=O)NCCc2cccc(C(F)(F)F)c2)cc1 | nM | 5.8 |
| CCCCc1nc(SC)c(C(=O)O)n1Cc1ccc(-c2ccccc2S(=O)(=O)NC(=O)OCCOC(C)C)cc1 | nM | 1.4 |
| CCCCc1nc(SC)c(C(=O)OCC)n1Cc1ccc(-c2ccccc2S(=O)(=O)NC(=O)N2CCSCC2)cc1 | nM | 5.3 |
| CCCCc1nc(SC)c(C(=O)O)n1Cc1ccc(-c2ccccc2S(=O)(=O)NC(=O)N[C@@H](CO)c2ccccc2)cc1 | nM | 2.8 |
| CCCCc1nc(SC)c(C(=O)O)n1Cc1ccc(-c2ccccc2S(=O)(=O)NC(=O)Nc2ccccc2)cc1 | nM | 2.3 |

====

Tgt: angiotensin II receptor
Test summary: Displacement of 125I- or 3H-angiotensin II from receptor preparations from various organs (liver, lung, adrenal gland, brain etc.)
Assay setup: Table 1; radioligand displacement, 25° C., 90 min, pH 7.4
Method: Alternatively, the affinity of the compounds of the formula I for the angiotensin II receptor can be determined by measurement of the ^125 I-angiotensin II or ^3 H-angiotensin II displacement of receptor preparations from various organs (liver, lung, adrenal gland, brain etc.). […] The degree of displacement of the radioligand from the receptor by the test compounds is determined by measurement of the receptor-bound radioactivity on the filters by means of a beta- or gamma-spectrometer. […]
pIC50: −log10 of the molar value.
Reported pIC50 values for a set of compounds
Observed property: pIC50

| Compound | Recorded measurement |
| --- | --- |
| CCCCc1nc(SC)c(C(=O)OCC)n1Cc1ccc(-c2ccccc2S(=O)(=O)NC(=O)N2CCCC2)cc1 [Example 141] | 8.36 |
| CCCCc1nc(SC)c(C(=O)OCC)n1Cc1ccc(-c2ccccc2S(=O)(=O)NC(=O)NC(C)c2ccccc2)cc1 (stereo not shown) [Example 95] | 8.74 |
| CCCCc1nc(SC)c(C(=O)OCC)n1Cc1ccc(-c2ccccc2S(=O)(=O)NC(=O)NCCc2ccccn2)cc1 [Example 65] | 8.74 |
| CCCCc1nc(SC)c(C(=O)OCC)n1Cc1ccc(-c2ccccc2S(=O)(=O)NC(=O)OC)cc1 [Example 174] | 8.29 |
| CCCCc1nc(SC)c(C(=O)O)n1Cc1ccc(-c2ccccc2S(=O)(=O)NC(=O)OCC2CC2)cc1 [Example 155] | 8.22 |
| CCCCc1nc(SC)c(C(=O)OCC)n1Cc1ccc(-c2ccccc2S(=O)(=O)NC(=O)Nc2ccccc2)cc1 [Example 99] | 7.58 |
| CCCCc1nc(SC)c(C(=O)OCC)n1Cc1ccc(-c2ccccc2S(=O)(=O)NC(=O)NCC(=O)OC)cc1 [Example 71] | 8.66 |

====

# key: entry, value: pIC50
Tgt: angiotensin II receptor
Test summary: Displacement of 125I- or 3H-angiotensin II from receptor preparations from various organs (liver, lung, adrenal gland, brain etc.)
Assay setup: Table 1; radioligand displacement, 25° C., 90 min, pH 7.4
pIC50: −log10 of the molar value.

| Smiles structure | pIC50 |
| --- | --- |
| CCCCc1nc(SC)c(C(=O)OCC)n1Cc1ccc(-c2ccccc2S(=O)(=O)NC(=O)NCc2cccc(OC)c2)cc1 | 8.41 |
| CCCCc1nc(Cl)c(C=O)n1Cc1ccc(-c2ccccc2S(=O)(=O)NC(=O)NCCC)cc1 | 5.10 |
| CCCCc1nc(SC)c(C(=O)OCC)n1Cc1ccc(-c2ccccc2S(=O)(=O)NC(=O)OCC)cc1 | 8.57 |
| CCCCc1nc(SC)c(C(=O)O)n1Cc1ccc(-c2ccccc2S(=O)(=O)NC(=O)NCCN2CCOCC2)cc1 | 8.60 |
| CCCCc1nc(SC)c(C(=O)OCC)n1Cc1ccc(-c2ccccc2S(=O)(=O)NC(=O)N2CCC(NC(=O)OC(C)(C)C)CC2)cc1 | 7.40 |
| CCCCc1nc(Cl)c(C=O)n1Cc1ccc(-c2ccccc2S(=O)(=O)NC(=O)Nc2ccc(F)cc2)cc1 | 5.85 |
| CCCCc1nc(SC)c(C(=O)O)n1Cc1ccc(-c2ccccc2S(=O)(=O)NC(=O)NCc2ccc(OC)c(OC)c2)cc1 | 8.96 |

FYI, the data here is from patent US5482957A.
